Test: Pharmacokinetics, ascending single-dose study in healthy male subjects
Format: in vivo
Settings: human, plasma, single oral doses 5 to 250 mg, read-out: median time of peak concentrations (Tmax)
quantity: Tmax

Give the measured Tmax of COc1ccc(CNC(=O)c2cc(-c3cncc(Cl)c3)cnc2-c2ccccn2)nc1OC [MK-1064] .
1 to 2 h

----------
Reported Kb is given for each of the following compounds.
Molecular target: UniProt:F7FE63
Sequence (F7FE63 1-425): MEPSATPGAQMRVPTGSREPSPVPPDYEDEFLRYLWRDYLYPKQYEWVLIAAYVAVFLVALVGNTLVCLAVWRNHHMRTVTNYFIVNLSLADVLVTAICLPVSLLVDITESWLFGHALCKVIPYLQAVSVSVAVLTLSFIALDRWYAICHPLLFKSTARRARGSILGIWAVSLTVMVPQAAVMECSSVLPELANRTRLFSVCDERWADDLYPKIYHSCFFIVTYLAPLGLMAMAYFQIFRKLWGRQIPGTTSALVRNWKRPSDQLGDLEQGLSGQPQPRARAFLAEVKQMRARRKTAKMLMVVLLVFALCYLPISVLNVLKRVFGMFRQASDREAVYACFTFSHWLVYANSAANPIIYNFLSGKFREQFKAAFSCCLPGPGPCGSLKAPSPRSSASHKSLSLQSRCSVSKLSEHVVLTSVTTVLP
Test: Inhibition of orexin-peptide-A-induced calcium mobilization in CHO cells, rhesus OX1R
Type: cell-based, rhesus monkey
Quick note: number first, unit second.

>  <smiles-structure>
COc1ccc(CNC(=O)c2cc(-c3cncc(C)c3)ncc2-c2ccccc2)nc1OC

>  <tgt>
UniProt:F7FE63

>  <Kb>
3.65 µM

$$$$
>  <smiles-structure>
COc1ccc(CNC(=O)c2cc(-c3cncc(Cl)c3)cnc2-c2ccccn2)nc1OC

>  <tgt>
UniProt:F7FE63

>  <Kb>
3.37 µM

$$$$
>  <smiles-structure>
Cc1ccc(-c2ncccn2)c(C(=O)N2C[C@H](COc3ccc(F)cn3)CC[C@H]2C)c1

>  <tgt>
UniProt:F7FE63

>  <Kb>
0.021 µM

$$$$

Give the measured Kb of COc1ccc(CNC(=O)c2cc(-c3cncc(C)c3)ncc2-c2nccs2)nc1OC .
21.4 µM

Give the measured Kb of COc1ccc(CNC(=O)c2cc(-c3cc(Cl)cc(Cl)c3)cnc2-c2cccnc2)cc1OC .
0.141 µM

----------
Reported Kb is given for each of the following molecules.
Biological target: OX2R (Macaca mulatta)
Assay: Inhibition of orexin-peptide-A-induced calcium mobilization in CHO cells, rhesus OX2R
Format: cell-based, rhesus monkey
API: value field is a number in nM; no unit string.

>  <smiles-structure>
Cc1ccc(-c2ncccn2)c(C(=O)N2C[C@H](COc3ccc(F)cn3)CC[C@H]2C)c1

>  <tgt>
OX2R (Macaca mulatta)

>  <quantity>
Kb

>  <readout-number>
14

$$$$

Requested read-out Kb, target or system OX2R (Macaca mulatta), entry COc1ccc(CNC(=O)c2cc(-c3cncc(C)c3)ncc2-c2nccs2)nc1OC
20

Requested read-out Kb, target or system OX2R (Macaca mulatta), entry COc1ccc(CNC(=O)c2cc(-c3cncc(C)c3)ncc2-c2ccccc2)nc1OC
18

Requested read-out Kb, target or system OX2R (Macaca mulatta), entry COc1ccc(CNC(=O)c2cc(-c3cc(Cl)cc(Cl)c3)cnc2-c2cccnc2)cc1OC
23

Requested read-out Kb, target or system OX2R (Macaca mulatta), entry COc1ccc(CNC(=O)c2cc(-c3cncc(Cl)c3)cnc2-c2ccccn2)nc1OC
9

----------
Reported pKi is given for each of the following compounds.
Target: OX2R (Canis lupus familiaris)
Sequence (Q9TUP7 whole entry): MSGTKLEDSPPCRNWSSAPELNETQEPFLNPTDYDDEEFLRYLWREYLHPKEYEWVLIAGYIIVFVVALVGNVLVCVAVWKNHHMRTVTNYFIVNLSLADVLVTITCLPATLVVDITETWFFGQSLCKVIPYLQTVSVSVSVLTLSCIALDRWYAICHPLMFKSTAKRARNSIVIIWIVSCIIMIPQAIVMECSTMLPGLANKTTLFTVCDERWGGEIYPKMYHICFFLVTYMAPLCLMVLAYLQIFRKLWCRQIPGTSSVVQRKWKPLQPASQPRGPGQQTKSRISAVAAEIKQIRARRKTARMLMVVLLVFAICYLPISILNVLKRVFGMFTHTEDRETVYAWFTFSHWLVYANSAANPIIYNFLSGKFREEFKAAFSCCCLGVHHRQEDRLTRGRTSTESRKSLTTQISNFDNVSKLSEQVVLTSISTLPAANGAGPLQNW
pKi is a log-scale quantity: -log10 of the concentration expressed in molar.

See these solved cases before continuing.
>  <smiles-structure>
COc1ccc(CNC(=O)c2cc(-c3cncc(C)c3)ncc2-c2ccccc2)nc1OC

>  <readout-number>
9.20

$$$$
>  <smiles-structure>
COc1ccc(CNC(=O)c2cc(-c3cncc(C)c3)ncc2-c2nccs2)nc1OC

>  <readout-number>
8.96

$$$$
>  <smiles-structure>
COc1ccc(CNC(=O)c2cc(-c3cc(Cl)cc(Cl)c3)cnc2-c2cccnc2)cc1OC

>  <readout-number>
9.96

$$$$
>  <smiles-structure>
COc1ccc(CNC(=O)c2cc(-c3cncc(Cl)c3)cnc2-c2ccccn2)nc1OC

>  <readout-number>
9.11

$$$$

Kindly consider the entry below.
Give the measured pKi of Cc1ccc(-c2ncccn2)c(C(=O)N2C[C@H](COc3ccc(F)cn3)CC[C@H]2C)c1 .
9.44

----------
Test: Plasma exposure in dogs after oral dosing
Assay type: in vivo, dog
Settings: beagle, dog, plasma, 20 mg/kg oral
quantity: Tmax (min)
API: value field is a number in min; no unit string.

Give the measured Tmax of COc1ccc(CNC(=O)c2cc(-c3cncc(Cl)c3)cnc2-c2ccccn2)nc1OC .
48

----------
Assay: Plasma exposure in dogs after oral dosing
Type: in vivo, dog
Settings: beagle, dog, plasma, 1 mg/kg oral
quantity: Cmax (nM)
API: value field is a number in nM; no unit string.

Give the measured Cmax of COc1ccc(CNC(=O)c2cc(-c3cncc(Cl)c3)cnc2-c2ccccn2)nc1OC [MK-1064] .
1000

----------
Test: Plasma exposure in dogs after oral dosing
Format: in vivo, dog
Details: beagle, dog, plasma, 1 mg/kg oral
quantity: Tmax

Give the measured Tmax of COc1ccc(CNC(=O)c2cc(-c3cncc(Cl)c3)cnc2-c2ccccn2)nc1OC .
18 min

----------
Assay: Pharmacokinetics, ascending single-dose study in healthy male subjects
Type: in vivo
Conditions: male, human, plasma, po, single oral doses 5 to 250 mg, read-out: mean apparent terminal half-life
quantity: half-life

Give the measured half-life of COc1ccc(CNC(=O)c2cc(-c3cncc(Cl)c3)cnc2-c2ccccn2)nc1OC .
6.8 to 11.1 h

----------
Reported Ki is given for each of the following compounds.
Molecular target: UniProt:G1STQ8
Sequence (G1STQ8 1-444): as the sequence (Q9TUP7 whole entry) above, with C12R, P19S, V70I, E217D, A272V, P275S, G277A, F414L, D415E counted along it
Experiment: Radio-ligand displacement binding, CHO-K1 membranes, rabbit OX2R
Details: read-out: OX2R affinity (Ki)
API: value field is a number in nM; no unit string.

>  <compound>
Cc1ccc(-c2ncccn2)c(C(=O)N2C[C@H](COc3ccc(F)cn3)CC[C@H]2C)c1 [MK-6096]

>  <tgt>
UniProt:G1STQ8

>  <unit-string>
nM

>  <Ki>
0.28

$$$$
>  <compound>
COc1ccc(CNC(=O)c2cc(-c3cncc(C)c3)ncc2-c2nccs2)nc1OC [MK-3697]

>  <tgt>
UniProt:G1STQ8

>  <unit-string>
nM

>  <Ki>
1.01

$$$$
>  <compound>
COc1ccc(CNC(=O)c2cc(-c3cc(Cl)cc(Cl)c3)cnc2-c2cccnc2)cc1OC [2-SORA-18]

>  <tgt>
UniProt:G1STQ8

>  <unit-string>
nM

>  <Ki>
0.1

$$$$
>  <compound>
COc1ccc(CNC(=O)c2cc(-c3cncc(C)c3)ncc2-c2ccccc2)nc1OC [2-SORA-7]

>  <tgt>
UniProt:G1STQ8

>  <unit-string>
nM

>  <Ki>
0.44

$$$$

Kindly consider the entry below.
Give the measured Ki of COc1ccc(CNC(=O)c2cc(-c3cncc(Cl)c3)cnc2-c2ccccn2)nc1OC [MK-1064] .
0.51

----------
The following molecules have recorded Ki on OX2R (Macaca mulatta, UniProt F7CZM2).
Sequence (F7CZM2 1-444): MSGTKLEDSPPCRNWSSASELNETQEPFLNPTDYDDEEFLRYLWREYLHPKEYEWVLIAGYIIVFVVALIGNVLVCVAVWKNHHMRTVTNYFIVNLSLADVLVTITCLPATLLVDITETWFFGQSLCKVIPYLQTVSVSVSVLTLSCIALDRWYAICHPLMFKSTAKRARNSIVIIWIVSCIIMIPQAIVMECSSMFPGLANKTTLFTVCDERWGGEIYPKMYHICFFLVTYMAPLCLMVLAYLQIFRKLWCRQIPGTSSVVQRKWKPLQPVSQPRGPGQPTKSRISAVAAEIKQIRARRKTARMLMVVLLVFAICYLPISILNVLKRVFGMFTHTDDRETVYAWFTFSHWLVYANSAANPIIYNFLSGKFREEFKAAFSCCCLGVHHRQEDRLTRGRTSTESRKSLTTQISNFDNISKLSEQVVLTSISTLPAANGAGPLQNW
API: value field is a number in nM; no unit string.

>  <smiles-structure>
COc1ccc(CNC(=O)c2cc(-c3cncc(C)c3)ncc2-c2ccccc2)nc1OC

>  <Ki [nM]>
0.67

$$$$
>  <smiles-structure>
COc1ccc(CNC(=O)c2cc(-c3cncc(Cl)c3)cnc2-c2ccccn2)nc1OC

>  <Ki [nM]>
0.62

$$$$
>  <smiles-structure>
Cc1ccc(-c2ncccn2)c(C(=O)N2C[C@H](COc3ccc(F)cn3)CC[C@H]2C)c1

>  <Ki [nM]>
0.44

$$$$

Give the measured Ki of COc1ccc(CNC(=O)c2cc(-c3cc(Cl)cc(Cl)c3)cnc2-c2cccnc2)cc1OC .
0.11

Give the measured Ki of COc1ccc(CNC(=O)c2cc(-c3cncc(C)c3)ncc2-c2nccs2)nc1OC .
1.14

----------
Experiment: Pharmacokinetics, ascending single-dose study in healthy male subjects
Format: in vivo
Conditions: human, plasma, single oral doses 5 to 250 mg
quantity: Cmax

Give the measured Cmax of COc1ccc(CNC(=O)c2cc(-c3cncc(Cl)c3)cnc2-c2ccccn2)nc1OC [MK-1064] .
0.37 to 8.28 µM

----------
Biological target: OX2R (Rattus norvegicus, UniProt P56719)
Construct: expressed in transfected cells; host or cells: CHO-K1
Sequence (P56719 whole entry): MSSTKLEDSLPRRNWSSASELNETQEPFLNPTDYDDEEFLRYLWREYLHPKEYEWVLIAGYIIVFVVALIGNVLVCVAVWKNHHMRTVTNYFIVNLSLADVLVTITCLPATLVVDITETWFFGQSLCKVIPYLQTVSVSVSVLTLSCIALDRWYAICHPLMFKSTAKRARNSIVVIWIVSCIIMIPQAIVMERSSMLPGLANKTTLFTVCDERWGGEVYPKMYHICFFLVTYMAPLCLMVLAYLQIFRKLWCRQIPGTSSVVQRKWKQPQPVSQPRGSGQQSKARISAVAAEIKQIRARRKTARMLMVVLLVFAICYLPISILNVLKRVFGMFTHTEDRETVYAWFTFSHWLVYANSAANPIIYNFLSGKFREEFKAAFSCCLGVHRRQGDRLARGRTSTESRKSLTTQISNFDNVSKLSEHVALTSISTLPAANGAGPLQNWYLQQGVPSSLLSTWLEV
Test: Inhibition of orexin-peptide-A-induced calcium mobilization in CHO cells, rat OX2R
Type: cell-based
Binary classification by Kb, with 20 nM as an inclusive lower bound for condition met; all other cases are condition not met.

>  <molecule>
COc1ccc(CNC(=O)c2cc(-c3cc(Cl)cc(Cl)c3)cnc2-c2cccnc2)cc1OC [2-SORA-18]

>  <class-label>
condition met

$$$$
>  <molecule>
COc1ccc(CNC(=O)c2cc(-c3cncc(C)c3)ncc2-c2nccs2)nc1OC [MK-3697]

>  <class-label>
condition met

$$$$
>  <molecule>
Cc1ccc(-c2ncccn2)c(C(=O)N2C[C@H](COc3ccc(F)cn3)CC[C@H]2C)c1 [MK-6096]

>  <class-label>
condition met

$$$$

Item COc1ccc(CNC(=O)c2cc(-c3cncc(C)c3)ncc2-c2ccccc2)nc1OC [2-SORA-7] with Kb of 20 nM or above?
condition not met

Item COc1ccc(CNC(=O)c2cc(-c3cncc(Cl)c3)cnc2-c2ccccn2)nc1OC [MK-1064] with Kb of 20 nM or above?
condition not met

----------
Molecular target: OX2R (Mus musculus, UniProt P58308)
Construct: expressed in transfected cells; host or cells: CHO-K1
Sequence (P58308 whole entry): as the sequence (P56719 whole entry) above, with P11S, R193C, R213H, V240I, P269Q, R387H, A424V counted along it
Experiment: Inhibition of orexin-peptide-A-induced calcium mobilization in CHO cells, mouse OX2R
Format: cell-based
Reported Kb is given for each of the following compounds.
API: value field is a number in nM; no unit string.

Requested read-out Kb, target or system OX2R (Mus musculus, UniProt P58308), entry COc1ccc(CNC(=O)c2cc(-c3cncc(C)c3)ncc2-c2nccs2)nc1OC [MK-3697]
12

Requested read-out Kb, target or system OX2R (Mus musculus, UniProt P58308), entry COc1ccc(CNC(=O)c2cc(-c3cncc(Cl)c3)cnc2-c2ccccn2)nc1OC [MK-1064]
7

Requested read-out Kb, target or system OX2R (Mus musculus, UniProt P58308), entry COc1ccc(CNC(=O)c2cc(-c3cncc(C)c3)ncc2-c2ccccc2)nc1OC [2-SORA-7]
14

Requested read-out Kb, target or system OX2R (Mus musculus, UniProt P58308), entry Cc1ccc(-c2ncccn2)c(C(=O)N2C[C@H](COc3ccc(F)cn3)CC[C@H]2C)c1 [MK-6096]
10

Requested read-out Kb, target or system OX2R (Mus musculus, UniProt P58308), entry COc1ccc(CNC(=O)c2cc(-c3cc(Cl)cc(Cl)c3)cnc2-c2cccnc2)cc1OC [2-SORA-18]
24
